meta.source: paper PMC4156793

Tested on: HUVECs
Assay: VEGF-induced sandwich tube formation (sTF) of HUVECs
Assay type: cell-based
Conditions: Homo sapiens, HUVEC, 96 h; sTF assay, EGF 10 ng/mL with VEGF 20 ng/mL, 4 days
Observable: IC50

Using known records, supply IC50 for COc1cc2nccc(Oc3ccc(NC(=O)NC4CC4)c(Cl)c3)c2cc1C(N)=O [lenvatinib]
2.7 nM

====

Molecular target: FGFR2 (Homo sapiens, UniProt P21802)
Sequence (P21802 22-821): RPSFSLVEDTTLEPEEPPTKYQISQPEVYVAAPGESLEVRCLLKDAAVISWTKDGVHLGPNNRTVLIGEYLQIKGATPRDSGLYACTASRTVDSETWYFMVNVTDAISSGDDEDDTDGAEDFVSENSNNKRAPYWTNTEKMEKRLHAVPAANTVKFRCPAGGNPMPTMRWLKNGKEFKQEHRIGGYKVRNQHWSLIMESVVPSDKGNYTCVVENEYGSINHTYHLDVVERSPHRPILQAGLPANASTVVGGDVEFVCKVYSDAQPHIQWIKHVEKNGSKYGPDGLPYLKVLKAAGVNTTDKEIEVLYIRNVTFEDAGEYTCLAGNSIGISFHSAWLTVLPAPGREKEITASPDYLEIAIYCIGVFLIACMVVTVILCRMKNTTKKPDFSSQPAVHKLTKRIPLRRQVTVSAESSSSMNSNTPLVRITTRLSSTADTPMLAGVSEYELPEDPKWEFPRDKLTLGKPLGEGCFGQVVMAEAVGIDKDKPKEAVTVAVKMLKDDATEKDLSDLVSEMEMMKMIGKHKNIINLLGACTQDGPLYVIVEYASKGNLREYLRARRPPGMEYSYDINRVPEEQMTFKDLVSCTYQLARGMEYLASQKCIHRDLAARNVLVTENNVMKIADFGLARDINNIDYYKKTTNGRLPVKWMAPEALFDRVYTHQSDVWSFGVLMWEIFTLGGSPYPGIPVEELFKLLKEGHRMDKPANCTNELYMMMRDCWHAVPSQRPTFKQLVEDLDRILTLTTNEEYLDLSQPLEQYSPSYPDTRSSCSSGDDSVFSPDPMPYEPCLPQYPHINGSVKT
Observable: Ki (nM)
Dear colleague, please return just the value in nM, with no unit written.

Using known records, supply Ki for COc1cc2nccc(Oc3ccc(NC(=O)NC4CC4)c(Cl)c3)c2cc1C(N)=O
8.2

====

Target: VEGFR1 (FLT1) (Homo sapiens, UniProt P17948)
Sequence (P17948 27-1338): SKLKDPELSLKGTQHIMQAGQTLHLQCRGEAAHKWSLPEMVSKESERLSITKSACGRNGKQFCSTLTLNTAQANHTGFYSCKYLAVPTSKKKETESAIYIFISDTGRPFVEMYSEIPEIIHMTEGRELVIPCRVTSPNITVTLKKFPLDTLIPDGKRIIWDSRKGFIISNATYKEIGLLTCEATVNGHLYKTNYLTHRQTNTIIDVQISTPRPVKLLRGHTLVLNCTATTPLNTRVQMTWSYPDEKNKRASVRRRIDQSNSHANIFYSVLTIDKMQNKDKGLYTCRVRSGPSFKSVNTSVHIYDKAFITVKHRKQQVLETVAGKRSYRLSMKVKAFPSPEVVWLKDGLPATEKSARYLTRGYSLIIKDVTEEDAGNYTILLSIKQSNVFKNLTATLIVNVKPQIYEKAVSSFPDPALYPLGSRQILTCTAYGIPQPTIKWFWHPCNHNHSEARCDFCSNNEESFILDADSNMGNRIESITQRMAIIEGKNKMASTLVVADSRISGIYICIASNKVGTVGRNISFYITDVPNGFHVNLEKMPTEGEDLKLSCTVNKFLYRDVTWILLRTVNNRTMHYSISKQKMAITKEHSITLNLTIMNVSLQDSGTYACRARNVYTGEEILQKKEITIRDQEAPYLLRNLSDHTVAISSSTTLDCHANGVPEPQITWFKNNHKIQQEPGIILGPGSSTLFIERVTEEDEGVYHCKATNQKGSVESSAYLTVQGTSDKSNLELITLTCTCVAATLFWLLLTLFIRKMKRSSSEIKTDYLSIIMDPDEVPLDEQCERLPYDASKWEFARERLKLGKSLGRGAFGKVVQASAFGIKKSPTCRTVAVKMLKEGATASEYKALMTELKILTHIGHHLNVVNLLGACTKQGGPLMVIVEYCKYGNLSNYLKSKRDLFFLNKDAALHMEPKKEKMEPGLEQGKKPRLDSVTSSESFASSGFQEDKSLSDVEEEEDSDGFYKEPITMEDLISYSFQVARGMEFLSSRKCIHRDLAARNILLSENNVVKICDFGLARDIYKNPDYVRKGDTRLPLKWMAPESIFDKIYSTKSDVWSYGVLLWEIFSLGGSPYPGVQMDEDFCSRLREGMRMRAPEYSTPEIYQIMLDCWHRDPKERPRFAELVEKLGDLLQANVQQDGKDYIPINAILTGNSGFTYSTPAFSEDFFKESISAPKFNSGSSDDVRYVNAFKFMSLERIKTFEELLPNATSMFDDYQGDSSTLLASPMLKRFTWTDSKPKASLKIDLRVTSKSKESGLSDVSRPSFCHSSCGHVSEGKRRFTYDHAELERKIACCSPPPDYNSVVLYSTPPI
Observable: Ki (nM)
Dear colleague, please return just the value in nM, with no unit written.

Using known records, supply Ki for COc1cc2nccc(Oc3ccc(NC(=O)NC4CC4)c(Cl)c3)c2cc1C(N)=O
1.3
